test: S. cerevisiae growth modulation with rapamycin, primary screen, strain BY4716, OD600, 96 h (AID 1091); details: higher = more signal, called active from +8 up or from −8 down; also: test concentration not given here
Classification field: TRUE = z-score at or over 0.6; FALSE = z-score under 0.6.

compound	category_label
CC(C)(C)OC(=O)CC[C@@]1(C(=O)NCc2ccccc2)N=C(c2ccc(OCCCO)cc2)O[C@@H]1c1ccccc1N=[N+]=[N-]	TRUE
CCOC(=O)C[C@H]1[C@H](OC(=O)c2cc3ccccc3oc2=O)[C@@H](NC(=O)c2ccc(-c3ccccc3)cc2)c2cc(OCCCO)ccc2N1C(=O)c1ccc2ccccc2n1	TRUE
CC(CO)N1C(=O)[C@@H]2[C@H]3C(=O)OCC=C[C@H]3OC23C=CCN(Cc2ccccc2)C(=O)[C@@H]13 (stereo partly specified)	FALSE
C=CC[C@]1(C(=O)NCCN2CCOCC2)N=C(c2ccc(OCCCO)cc2)O[C@H]1c1ccccc1CN=[N+]=[N-]	FALSE
COCCOC(=O)N1C(=O)[C@@]2(c3cc(C#CC4(O)CCCCCC4)ccc31)[C@H](c1ccc(O)cc1)N1[C@H](c3ccccc3)[C@H](c3ccccc3)OC(=O)[C@H]1[C@@H]2C(=O)NC[C@H](O)c1ccccc1	TRUE

Lab note: next compound to report on.
Input line: Test whether the compound O=C1NC(=O)C2C1C=CC(C(O)c1ccco1)N2Nc1ccccn1 (stereo unspecified) records z-score of 0.6 or higher.
Output line: TRUE

* * *

test: RPMI8226 myeloma cell viability, profiling panel, resazurin fluorescence, basal, 24 h, PK04 Diversity Set (AID 1180); details: higher = more signal;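 also: RPMI8826 multiple myeloma cell line at 5000 cells per well; test concentration not given here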
Below is a list of entries, each paired with its recorded z-score value.
No unit in the answer, please; the number alone is enough.

>>> df
                               smiles_entry  recorded_result
0  COC(=O)[C@@]1(Cc2ccc(OC)cc2)[C@H]2c3cc(C(=O)N(C)C)n(CCO)c3C[C@H]2CN1C(=O)c1ccccc1           -0.915
1  C[C@@H]1ON(c2ccc(C(=O)OC(C)(C)C)cc2)[C@H](c2ccc(O)cc2)[C@H]1C(=O)N1C(=O)OC[C@H]1Cc1ccccc1           -0.687

z-score for `COC(=O)c1cn(C[C@@H](Cc2ccccc2)NC(=O)N[C@H](CO)CCc2oc(C(C)=O)c(C(=O)OC)c2C(=O)OC)nn1` is -0.181

* * *

assay: S. cerevisiae growth modulation with rapamycin, primary screen, strain BY4716, OD600, 96 h (AID 1091); conditions: higher = more signal, called active from +8 up or from −8 down; also: test concentration not given here
Note that class boundaries on z-score are lower level = under -0.1, middle level = from -0.1 up to 0.8, upper level = 0.8 and over

Would you please look over these solved cases?
compound	category_label
C=CCOC(=O)[C@H]1[C@@H]2C(=O)O[C@@H](c3ccccc3)[C@@H](c3ccccc3)N2[C@@H](c2ccc(OCCOC(=O)[C@@H]3C[C@@H]4C(=O)N5CCC[C@H]5C(=O)N4[C@@H]3c3ccc(O)cc3)cc2)[C@]12C(=O)Nc1ccc(I)cc12	upper level
COC(=O)[C@@]1(Cc2ccccc2)[C@H]2c3cc(C(=O)N(C)C)n(Cc4c(CO)[nH]cc(C)c4=O)c3C[C@H]2CN1C(=O)c1ccccc1	middle level
CCCCC(O)C1C=CC2C(=O)N(c3ccccc3)C(=O)C2N1Nc1ccc(C(C)C)cc1 (stereo not given)	middle level

Lab note: next compound to report on.
Input line: Just checking, what class would you give `CC(C)[Si](C#C[Si](C(C)C)(C(C)C)C(C)C)(O[C@H](C)c1cn([C@H](CO)Cc2ccccc2)nn1)C(C)C` here?
Output line: lower level
